Target: APC11/APC2 (Homo sapiens, UniProt Q9NYG5+Q9UJX6)
Sequence (Q9NYG5 whole entry): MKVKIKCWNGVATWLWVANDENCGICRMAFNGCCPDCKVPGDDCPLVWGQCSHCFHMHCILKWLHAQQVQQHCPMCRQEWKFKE
Sequence (Q9UJX6 whole entry): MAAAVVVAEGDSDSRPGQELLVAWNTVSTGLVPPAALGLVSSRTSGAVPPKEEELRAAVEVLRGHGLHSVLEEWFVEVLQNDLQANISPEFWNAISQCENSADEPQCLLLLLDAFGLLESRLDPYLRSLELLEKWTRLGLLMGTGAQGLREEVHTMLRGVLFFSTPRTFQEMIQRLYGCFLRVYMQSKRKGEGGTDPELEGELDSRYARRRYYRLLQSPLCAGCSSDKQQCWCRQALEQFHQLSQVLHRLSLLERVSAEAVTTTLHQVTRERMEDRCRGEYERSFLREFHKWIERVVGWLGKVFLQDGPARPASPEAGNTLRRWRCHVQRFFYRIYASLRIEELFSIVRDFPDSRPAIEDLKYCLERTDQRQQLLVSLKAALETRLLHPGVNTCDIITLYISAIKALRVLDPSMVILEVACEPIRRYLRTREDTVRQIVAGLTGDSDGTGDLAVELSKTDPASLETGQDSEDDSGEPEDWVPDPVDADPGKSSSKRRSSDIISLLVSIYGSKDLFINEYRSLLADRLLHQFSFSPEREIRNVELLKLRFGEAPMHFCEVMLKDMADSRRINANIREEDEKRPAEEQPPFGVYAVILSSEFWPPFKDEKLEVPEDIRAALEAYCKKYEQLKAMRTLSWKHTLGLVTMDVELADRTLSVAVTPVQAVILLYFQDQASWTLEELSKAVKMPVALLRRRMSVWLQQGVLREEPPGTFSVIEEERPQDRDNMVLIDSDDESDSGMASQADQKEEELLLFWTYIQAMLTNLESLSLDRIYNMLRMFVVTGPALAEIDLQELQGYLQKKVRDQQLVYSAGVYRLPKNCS
Test: APC-11/APC-2 ligase assay (APC auto ubiquitination)
Settings: APC assay
pIC50: −log10 of the molar value.
measure: pIC50

Guide cases for pIC50, answers given:
# chemical_structure, study_target, result
rows = [
    ("O=C1CCCN1CCCNS(=O)(=O)c1ccc(Cl)c2nonc12", "APC11/APC2 (Homo sapiens, UniProt Q9NYG5+Q9UJX6)", "≤ 4.70"),
    ("O=[N+]([O-])c1ccc(Oc2ccc(S(=O)(=O)Nc3cccc4nonc34)cc2Cl)c(C(F)(F)F)c1", "APC11/APC2 (Homo sapiens, UniProt Q9NYG5+Q9UJX6)", "4.70 to 6.00"),
]

// query Quick check: pIC50 of `COc1cccc(-c2cc(-c3cccc(OC)c3)c3nonc3c2)c1` ?
// result ≤ 4.70

// query `Cc1ccc(-c2cc([N+](=O)[O-])cc3nonc23)cc1` ?
// result ≤ 4.70
